What follows is a collection of IC50 values obtained with UniProt Q9Y5N1.
Sequence (Q9Y5N1 whole entry): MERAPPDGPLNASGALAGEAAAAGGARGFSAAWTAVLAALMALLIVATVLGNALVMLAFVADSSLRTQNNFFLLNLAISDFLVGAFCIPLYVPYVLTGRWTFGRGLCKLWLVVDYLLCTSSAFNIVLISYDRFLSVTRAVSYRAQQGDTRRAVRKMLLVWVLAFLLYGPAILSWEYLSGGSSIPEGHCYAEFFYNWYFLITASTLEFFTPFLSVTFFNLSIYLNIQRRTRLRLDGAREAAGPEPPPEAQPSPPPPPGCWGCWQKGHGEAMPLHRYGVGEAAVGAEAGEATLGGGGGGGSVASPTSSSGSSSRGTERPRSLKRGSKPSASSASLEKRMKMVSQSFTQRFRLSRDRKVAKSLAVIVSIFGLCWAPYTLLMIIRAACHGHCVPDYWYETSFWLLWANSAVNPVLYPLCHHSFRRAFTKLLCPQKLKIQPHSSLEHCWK

# Structure string, IC50 / nM
records = [
    ("OC1CCN(Cc2ccc(OCCCN3CCCCC3)cc2)CC1", 0.72),
    ("OCCC1CCN(Cc2ccc(OCCCN3CCCCC3)cc2)CC1", 0.98),
    ("OCC1CCN(Cc2ccc(OCCCN3CCCCC3)cc2)CC1", 1.3),
    ("C[N+](C)(C)CCCCCCCCCC[N+](C)(C)C", 820),
]

----------
- Experimental system: Acetylcholinesterase (Homo sapiens, UniProt P22303)
- Sequence (P22303 whole entry): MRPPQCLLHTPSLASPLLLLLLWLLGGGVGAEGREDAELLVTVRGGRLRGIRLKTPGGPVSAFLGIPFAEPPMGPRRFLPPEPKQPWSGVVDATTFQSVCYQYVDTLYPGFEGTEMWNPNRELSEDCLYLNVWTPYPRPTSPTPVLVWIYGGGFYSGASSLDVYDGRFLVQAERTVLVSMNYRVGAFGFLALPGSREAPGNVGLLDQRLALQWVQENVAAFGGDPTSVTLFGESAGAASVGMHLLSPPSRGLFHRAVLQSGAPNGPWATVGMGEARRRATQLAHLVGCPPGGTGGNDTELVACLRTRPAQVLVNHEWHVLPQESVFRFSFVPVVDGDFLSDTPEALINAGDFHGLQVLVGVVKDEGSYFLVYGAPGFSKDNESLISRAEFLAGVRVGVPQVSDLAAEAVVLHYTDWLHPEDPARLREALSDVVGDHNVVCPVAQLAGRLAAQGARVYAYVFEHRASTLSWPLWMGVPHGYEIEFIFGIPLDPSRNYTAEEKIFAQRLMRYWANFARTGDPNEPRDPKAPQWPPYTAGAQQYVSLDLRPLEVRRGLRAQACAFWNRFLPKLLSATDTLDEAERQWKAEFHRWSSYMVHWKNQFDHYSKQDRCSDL
pIC50: −log10 of the molar value.
I would appreciate it if you labelled entries True when pIC50 is 6 or higher, otherwise False.

# Structure string, Label value
records = [
    ("OC1CCN(Cc2ccc(OCCCN3CCCCC3)cc2)CC1", "False"),
    ("c1cc(OCCCN2CCCCC2)ccc1CN1CCCCC1", "False"),
    ("C[N+](C)(C)CCCCCCCCCC[N+](C)(C)C", "False"),
    ("OCCC1CCN(Cc2ccc(OCCCN3CCCCC3)cc2)CC1", "True"),
]
